Test system: Tumor Cell line
Method description: TGI was measured In vitro as the ratio of the mean activity for all non-CNS tumor cell lines over the mean activity of the CNS tumor subpanel (eight cell lines)
Assay type: functional, Homo sapiens

Compound: Cc1c2cc[n+](C)cc2c(C)c2c1[nH]c1ccc(Oc3ccccc3)cc12.[I-]
TGI ratio: 2.06

Compound: CC(=O)[O-].CCOc1ccc2[nH]c3c(C)c4cc[n+](C)cc4c(C)c3c2c1
TGI ratio: 7.08

Compound: Cc1c2cc[n+](C)cc2c(C)c2c1[nH]c1ccc(OC(C)C)cc12.[I-]
TGI ratio: 6.49

Compound: CC(=O)[O-].Cc1c2cc[n+](C)cc2c(C)c2c1[nH]c1ccc(OC(C)C)cc12
TGI ratio: 2.09

Compound: Cc1c2ccncc2c(C)c2c1[nH]c1ccc(OCC(F)(F)F)cc12
TGI ratio: 0.73

Compound: Cc1c2cc[n+](C)cc2c(C)c2c1[nH]c1ccc(O)c(OCC(F)(F)F)c12.[I-]
TGI ratio: 3.89

Compound: CC(=O)[O-].Cc1c2cc[n+](C)cc2c(C)c2c1[nH]c1ccc(Oc3ccccc3)cc12
TGI ratio: 3.06

Compound: CC(=O)[O-].Cc1c2cc[n+](C)cc2c(C)c2c1[nH]c1ccc(O)cc12 [ELLIPTINIUM ACETATE]
TGI ratio: 9.34

Compound: CC(=O)[O-].Cc1c2cc[n+](C)cc2c(C)c2c1[nH]c1ccc(OCC(F)(F)F)cc12
TGI ratio: 13.7

Compound: CC(=O)[O-].COc1ccc2[nH]c3c(C)c4cc[n+](C)cc4c(C)c3c2c1
TGI ratio: 33.9

Compound: Cc1c2cc[n+](C)cc2c(C)c2c1[nH]c1ccc(OCC(F)(F)F)cc12.[I-]
TGI ratio: 9.11
